subject of test: T1, monkey 4-1BB on CHOK1 cells (monkey)
T1 construct: whole, on cells; also called CHOK1-c4-1BB
protocol summary: FACS, CHOK1-c4-1BB cells; Ab 0.00064 ug/ml
measured attribute: average fluorescence intensity (MFI)
Numbers only, in MFI.

Solved entries:
119B6G5 (antibody, V domains shown) VH: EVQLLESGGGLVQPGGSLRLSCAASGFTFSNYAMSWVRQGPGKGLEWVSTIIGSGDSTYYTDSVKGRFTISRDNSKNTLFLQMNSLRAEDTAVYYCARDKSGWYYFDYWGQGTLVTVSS VL: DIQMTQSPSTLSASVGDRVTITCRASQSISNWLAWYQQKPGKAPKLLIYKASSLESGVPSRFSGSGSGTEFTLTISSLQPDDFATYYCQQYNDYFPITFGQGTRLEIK; 6.6
15G10D4 (antibody, V domains shown) VH: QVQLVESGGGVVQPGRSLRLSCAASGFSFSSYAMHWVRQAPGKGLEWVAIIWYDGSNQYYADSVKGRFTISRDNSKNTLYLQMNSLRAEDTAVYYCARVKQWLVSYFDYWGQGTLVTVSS VL: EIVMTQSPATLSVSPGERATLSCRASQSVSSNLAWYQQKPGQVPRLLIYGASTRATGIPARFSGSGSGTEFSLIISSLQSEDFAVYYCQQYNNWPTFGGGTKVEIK; 4.8

From here, focus on the item given below.
Can you share its average fluorescence intensity? I mean this binder: 100F3C4 (antibody, V domains shown) VH: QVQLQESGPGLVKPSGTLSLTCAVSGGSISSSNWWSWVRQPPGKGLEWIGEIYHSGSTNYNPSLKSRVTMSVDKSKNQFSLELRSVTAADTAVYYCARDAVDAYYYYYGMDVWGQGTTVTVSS VL: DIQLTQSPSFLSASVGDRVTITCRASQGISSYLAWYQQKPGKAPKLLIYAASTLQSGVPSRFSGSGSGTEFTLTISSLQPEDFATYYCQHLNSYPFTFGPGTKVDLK 2.9
